Numbers sourced from PubChem BioAssay (NCI).

Tested on: BT-549 breast
assay_method_text: NCI-60 one-dose screen, 48 h (100 = growth as untreated, 0 = no growth, -100 = all killed)
experimental_conditions: 10 µM
Compounds without any hit were thinned out: in the full panel of roughly 83,000, 20% have a hit.
readout_kind: growth (%)
Express your answer in %, writing the number without its unit.

Please review the entries below; each comes with its answer.
>  <molecule>
COc1ccc(C(C)=O)cc1N1C(=O)C2C(C1=O)C1(c3ccccc3)C(=O)C2(c2ccccc2)C(c2ccc(C)cc2)=C1c1ccc(C)cc1 (stereo not given)

>  <readout_kind>
growth

>  <units>
%

>  <measured_value>
38.4

$$$$
>  <molecule>
Nc1ccc(Sc2ccc3c4c2cccc4c(=O)n2c4ccccc4nc32)cc1

>  <readout_kind>
growth

>  <units>
%

>  <measured_value>
59.1

$$$$
>  <molecule>
CC1=CC2OC34COC3CC(OC(=O)C(F)(F)F)C4(C)C2(C)CC1 (stereo not given)

>  <readout_kind>
growth

>  <units>
%

>  <measured_value>
95.9

$$$$
>  <molecule>
CC(=O)Oc1c(C)c(C)c2c(c1C)CCC(C)(CC(=O)OCCCCCCCCCCC[P+](c1ccccc1)(c1ccccc1)c1ccccc1)O2 (stereo not given)

>  <readout_kind>
growth

>  <units>
%

>  <measured_value>
-91.4

$$$$
>  <molecule>
COc1ccccc1Cn1cc2c(c1-c1ccccc1)CCc1cnoc1-2

>  <readout_kind>
growth

>  <units>
%

>  <measured_value>
46.9

$$$$
>  <molecule>
COc1ccc(C2C=C(c3ccc(Cl)cc3)N=C3SC=CN32)c(Br)c1 (stereo not given)

>  <readout_kind>
growth

>  <units>
%

>  <measured_value>
96.7

$$$$

Input `COc1cc(C2=Nc3c/c(=C\c4c(O)[nH]c5ccc(Cl)cc45)ccc3=N2)cc(OC)c1OC` . Output growth: -28.2

Input `C#Cc1ccc(-n2c(/C=C/c3cc(OC)c(OC)c(OC)c3)nc3ncccc3c2=O)cc1` . Output growth: 59.7

Input `COc1ccc(-c2nnc(SC/C(=N\O)c3ccccc3)o2)cc1` . Output growth: 100

---

Test system: ACHN renal
assay_method_text: NCI-60 one-dose screen, 48 h
experimental_conditions: 10 µM
Protocol: Growth inhibition of the ACHN human tumor cell line is measured as a screen for anti-cancer activity. Cells are grown in 96 well plates and exposed to the test compound for 48 hours. Compounds are tested at a single concentration, which is 10^-5 M for most compounds. The reported endpoint is percent growth (GI% or GIPRCNT), where numbers from 0 - 100% represent growth inhibition, and numbers from -100% - 0 represent cell death. For example, a value of 40 represents 60% growth inhibition. […]
The panel holds about 83,000 compounds, 20% with a hit somewhere; the sample as a whole holds those more often. Activity calls are given as the source filed them. How the source made its calls: active means growth percent below 10; inactive means the rest.
Respond only with the outcome that fits, drawn from active, inactive

// below: answered compounds
>  <compound>
COc1ccc(S(=O)(=O)Nc2cc(/C=C\c3cc(OC)c(OC)c(OC)c3)ccc2OC)cc1

>  <measured_target>
ACHN renal

>  <answer_label>
inactive

$$$$
>  <compound>
CCCCc1ccc(NC(=O)N(CCCl)N=O)cc1

>  <measured_target>
ACHN renal

>  <answer_label>
inactive

$$$$
>  <compound>
CCCCOCCOCCOCc1cc2c(cc1Br)OCO2

>  <measured_target>
ACHN renal

>  <answer_label>
inactive

$$$$
>  <compound>
CCOc1nc(-c2ccccc2)cc2c(O)c(C(=O)NCCCO)[nH]c(=O)c12

>  <measured_target>
ACHN renal

>  <answer_label>
inactive

$$$$
>  <compound>
CCOC(=O)/C(C#N)=C(/C)C1CC1

>  <measured_target>
ACHN renal

>  <answer_label>
inactive

$$$$
>  <compound>
COC(=O)c1cnc2c(c1)Oc1ccccc1-c1ccnn1-2

>  <measured_target>
ACHN renal

>  <answer_label>
inactive

$$$$
>  <compound>
N#CC1C=Cc2c(ccc3ccccc23)N1C(=O)c1ccccc1 (centres undefined)

>  <measured_target>
ACHN renal

>  <answer_label>
inactive

$$$$
>  <compound>
COc1cc(Cl)cc(-c2nn(-c3cccc(NC(=O)Nc4cccc(C(F)(F)F)c4)c3)cc2-c2ccncc2)c1

>  <measured_target>
ACHN renal

>  <answer_label>
active

$$$$

## Input Outcome? `CNCCCNCCCN1C(=O)c2ccc3c4c(ccc(c24)C1=O)C(=O)N(CCCNCc1ccccc1OC)C3=O`
## Output inactive

## Input Outcome? `CCN(CC)CCOC(=O)c1ccc(N=Nc2ccc(O)c(OC)c2)cc1`
## Output inactive

## Input Outcome? `COc1ccc(C2=Cc3ccc(OC(C)=O)cc3OC2)cc1`
## Output inactive

---

Test system: RPMI-8226 leukemia
assay_method_text: NCI-60 one-dose screen, 48 h (100 = growth as untreated, 0 = no growth, -100 = all killed)
experimental_conditions: 10 µM
The panel holds about 83,000 compounds, 20% with a hit somewhere; the sample as a whole holds those more often.
growth vs 10%: at or above is Y, below is N.

// below: answered compounds
>  <compound>
Cc1nc2scc(-c3ccc(Cl)cc3)n2c(=O)c1CCN1CCOCC1

>  <answer_label>
Y

$$$$
>  <compound>
COc1ccc(/C(=C/c2cc(OC)c(OC)cc2[N+](=O)[O-])C(=O)O)cc1

>  <answer_label>
Y

$$$$
>  <compound>
O=C(Nc1ccc(Oc2ccc(Nc3nc4ccccc4s3)cc2)cc1)Nc1ccc(Cl)c(Cl)c1

>  <answer_label>
Y

$$$$
>  <compound>
O=C(Nc1ccc(CN2CCOCC2)cc1)c1ccc(-c2cc(Cl)ccc2Cl)o1

>  <answer_label>
N

$$$$
>  <compound>
O=S(=O)(NCCO)c1ccc(OCCOc2ccc(S(=O)(=O)NCCO)cc2)cc1

>  <answer_label>
Y

$$$$

## Input Test whether the compound `CCCCCCCCCCCCc1ccc(C(=O)/C=C/C(=O)O)cc1` records growth of 10% or higher.
## Output N

## Input Test whether the compound `COc1cc(/C=C/C(=O)c2cc(-c3ccccc3)ccc2O)cc(OC)c1OC` records growth of 10% or higher.
## Output Y

## Input Test whether the compound COc1cc(C2C=C(c3ccc(Cl)c(Cl)c3)N=C3SC(C)=CN32)cc(OC)c1OC (centres undefined) records growth of 10% or higher.
## Output N

## Input Test whether the compound CN1/C(=C\C(I)C(I)C2=[N+](C)c3ccccc3C2(C)C)C(C)(C)c2ccccc21 (centres undefined) records growth of 10% or higher.
## Output N

## Input Test whether the compound `Cn1c(N)c(N=Cc2ccccc2)c(=O)n(C)c1=O` records growth of 10% or higher.
## Output Y

---

System: TK-10 renal
assay_method_text: NCI-60 one-dose screen, 48 h
experimental_conditions: 10 µM
About 83,000 compounds went through this panel and 20% of them were active in at least one assay; those are over-represented in the sample as a whole. Calls of active or inactive are those of the source. How the source made its calls: active means growth percent below 10; inactive means the rest.
Respond only with the outcome that fits, drawn from active, inactive

// below: answered compounds
>  <compound>
COc1ccc(-c2cc(/C=C/C(=O)c3ccc(N)cc3)[nH]n2)cc1OC

>  <answer_label>
inactive

$$$$
>  <compound>
COc1ccc2nc(/C=C/c3ccc(N(C)C)cc3)sc2c1

>  <answer_label>
inactive

$$$$
>  <compound>
Cc1nc2scc(-c3ccc(Cl)cc3)n2c(=O)c1CCN1CCOCC1

>  <answer_label>
inactive

$$$$
>  <compound>
O=c1oc2c3ccc4cnccc4c3[nH]c2c2ccccc12

>  <answer_label>
inactive

$$$$
>  <compound>
Cc1cc(/C=C2\SC(=Nc3ccccc3)N(C3CCCC3)C2=O)c(C)n1-c1ccc(Cl)cc1

>  <answer_label>
active

$$$$

## Input Outcome? `COc1cc(OC)cc(N2CCN(C(=O)Nc3nc4cc(F)ccc4nc3OC)CC2)c1`
## Output inactive

## Input Outcome? `CCCCCCCCCCCC(=O)NCCCN(C)C`
## Output inactive

---

System: T-47D breast
assay_method_text: NCI-60 one-dose screen, 48 h (100 = growth as untreated, 0 = no growth, -100 = all killed)
experimental_conditions: 10 µM
This is part of a sample that, as a whole, favours compounds with a hit. Of some 83,000 tested, about 20% had one in any assay.
growth class ranges: bin 0 = under 80%, bin 1 = from 80% up to 90%, bin 2 = 90% and over

// below: answered compounds
>  <compound>
COc1ccc(-c2nnc(SCC(=O)c3ccccc3)o2)cc1

>  <answer_label>
bin 1

$$$$
>  <compound>
N#CC1C=Cc2c(ccc3ccccc23)N1C(=O)c1ccccc1 (stereo not drawn)

>  <answer_label>
bin 0

$$$$
>  <compound>
CCCCCN(CCCCC)C(C)C(O)c1ccc2cc(Cl)c3ccccc3c2c1 (stereo not drawn)

>  <answer_label>
bin 1

$$$$

## Input Form field 'band' for CCOC(=O)C(CCC1=NC(C)(C)CC(C)O1)C(=O)OCC (stereo not drawn)
## Output bin 2

## Input Form field 'band' for O=C(c1ccccc1)C(Nc1ccccc1)c1ccccc1 (stereo not drawn)
## Output bin 0

## Input Form field 'band' for `CN(C)CCCN(Cc1ccccc1O)C(=S)Nc1ccc(Cl)cc1`
## Output bin 2

## Input Form field 'band' for `CC(=O)/C(=C\c1ccc(Cl)cc1)c1ccccc1`
## Output bin 0

## Input Form field 'band' for `N=C(N)c1ccc(-c2ccc(-c3cccs3)s2)nc1`
## Output bin 0

## Input Form field 'band' for NC(=O)C1CCCN(Cc2c[nH]c3ccccc23)C1 (stereo not drawn)
## Output bin 2

## Input Form field 'band' for COC(=O)CCCCCCCCC(C)c1ccc(C(C)=O)cc1 (stereo not drawn)
## Output bin 2
